Where these numbers come from: the supplement of paper PMC8728848

Entries and their glycan array binding signal (z-score) values follow.
molecular target: Fuc(a1-3)[Gal(b1-4)]GlcNAc6S; assay: glycan array binding signal (z-score within array); higher = stronger binding; conditions: glycan notation: IUPAC condensed, linker removed
Only a selection was taken, and the strongest signals are over-represented in it overall.
Answer with the value's number alone.

Request: Return reported glycan array binding signal (z-score). Input binder: CLC (Homo sapiens), Q9UBD9 (protein) MDLRAGDSWGMLACLCTVLWHLPAVPALNRTGDPGPGPSIQKTYDLTRYLEHQLRSLAGTYLNYLGPPFNEPDFNPPRLGAETLPRATVDLEVWRSLNDKLRLTQNYEAYSHLLCYLRGLNRQAATAELRRSLAHFCTSLQGLLGSIAGVMAALGYPLPQPLPGTEPTWTPGPAHSDFLQKMDDFWLLKELQTWLWRSAKDFNRLKKKMQPPAAAVTLHLGAHGF
Result: -0.923

Request: Return reported glycan array binding signal (z-score). Input binder: Clec49 (Caenorhabditis elegans) (protein) MTRLTLLLFGLLGAATAQTCNTGGIYNEQFNRCYQYFTAPAQFSFAEQQCNLLGGHLASVQNGQENALLQSNAANSFKRSNYSDYWIGATDLETSGTWKWTDPSVTFDYSNWQLGEPQSGSDCAIQDKGDGTWSAIGCTSYRPYVCVTPVIMTATCPPITTPIPTTCPTPAPCPIKQCVPSCDQGWTYFSPTDFCYRVYHGEKFNDAEASCVLLGGHLASIHSLTENTFVNNIASCGIKEGKYEHLAWIGMRKVGQDWVWTDGTPSDYFNWAPKQPDNPKKELCVQTAPDLSHDKWYENWNNLECNEVMRAYICKKASIHN
Result: -0.462

Request: Return reported glycan array binding signal (z-score). Input binder: Mermaid3 (Stilbonema majum) (protein) MGSSHHHHHHSSGLVPRGSHMAASGWLRSPQGTVVKLYRRSLSWSKADEFCKDVDGRLVVDRTADMHLFLIKNVLKEKKSRVWVGLRRTASHSRTWIWSDGTRQNEGDLDANLWLRDEPNDAAGEEECALFMYSPWEKAWGLNDYLCRGGCRNYQFICEKWIR
Result: 3.67
